B1: CPEB3 Ribozyme (parent)
chain: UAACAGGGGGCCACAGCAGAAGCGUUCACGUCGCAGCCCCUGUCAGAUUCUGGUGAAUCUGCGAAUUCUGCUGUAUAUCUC

variants of: B1; test: self-cleavage, relative activity (ratio to wild type); higher = more cleavage; in vitro, sequencing
Entry flag: criterion met if self-cleavage reaches 0.4; criterion not met if it does not.

Problem: Is self-cleavage for G24A U67C at or above 0.4?
Result: criterion not met

Problem: Is self-cleavage for C27U U54A at or above 0.4?
Result: criterion not met

Problem: Is self-cleavage for G6A G63A at or above 0.4?
Result: criterion not met

Problem: Is self-cleavage for C27U U78G at or above 0.4?
Result: criterion not met

Problem: Is self-cleavage for U60C C68G at or above 0.4?
Result: criterion not met

Problem: Is self-cleavage for G22A U48C at or above 0.4?
Result: criterion not met

Problem: Is self-cleavage for C17A A18G at or above 0.4?
Result: criterion met

Problem: Is self-cleavage for A20G C29U at or above 0.4?
Result: criterion not met

Problem: Is self-cleavage for U74G A75U at or above 0.4?
Result: criterion met

Problem: Is self-cleavage for C39A U58C at or above 0.4?
Result: criterion not met

Problem: Is self-cleavage for A35U C62G at or above 0.4?
Result: criterion not met

Problem: Is self-cleavage for A28G A75G at or above 0.4?
Result: criterion met

Problem: Is self-cleavage for C17U U58G at or above 0.4?
Result: criterion not met

Problem: Is self-cleavage for G8C A28G at or above 0.4?
Result: criterion not met

Problem: Is self-cleavage for A20G G30C at or above 0.4?
Result: criterion not met

Problem: Is self-cleavage for G8A A64U at or above 0.4?
Result: criterion not met

Problem: Is self-cleavage for U25C U78C at or above 0.4?
Result: criterion not met

Problem: Is self-cleavage for U67A C68U at or above 0.4?
Result: criterion not met
